These measurements were taken from patent US20240199587A1.

- tested on: MAGL (Homo sapiens, UniProt Q99685)
- Sequence (Q99685 1-303): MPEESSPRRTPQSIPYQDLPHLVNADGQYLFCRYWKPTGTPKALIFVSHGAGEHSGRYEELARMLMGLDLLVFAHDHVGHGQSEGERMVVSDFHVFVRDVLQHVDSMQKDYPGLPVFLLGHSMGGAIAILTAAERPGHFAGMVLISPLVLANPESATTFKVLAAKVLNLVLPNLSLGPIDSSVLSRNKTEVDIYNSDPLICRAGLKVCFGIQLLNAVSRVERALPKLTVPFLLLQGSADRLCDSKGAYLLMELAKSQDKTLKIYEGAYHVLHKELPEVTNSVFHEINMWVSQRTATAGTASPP
- test method notes: 2-AG assay (MAGL inhibitory activity, hydrolysis of 2-arachidonoylglycerol to arachidonic acid followed by mass spectrometry)
- Type: biochemical
- setup conditions: 8 μM 2-arachidonoylglycerol, 15 min pre-incubation, 30 min incubation at RT, RapidFire MS readout
pIC50: −log10 of the molar value.
recorded endpoint: pIC50

Please review the entries below; each comes with its answer.
compound	tested on	pIC50
O=C(N1CC(Oc2nccc(C3CC3)c2Cl)C1)N1CC2(CC(n3cnc(C4CC4)n3)C2)C1 [Example 185]	MAGL (Homo sapiens, UniProt Q99685)	10.00
CCCS(=O)(=O)N1CC2(CN(C(=O)N3CC4(CC(n5cnc(C6CC6)n5)C4)C3)C2)C1 [Example 320]	MAGL (Homo sapiens, UniProt Q99685)	6.50
O=C(N1CC2(CC(Oc3cnc(C(F)(F)F)nc3)C2)C1)N1CC2(CC(n3cnc(C4CC4)n3)C2)C1 [Example 61]	MAGL (Homo sapiens, UniProt Q99685)	8.27
O=C(c1cnc(OCC2(C(F)(F)F)CC2)nc1)N1CC2(CC(n3cnc(C4CC4)n3)C2)C1 [Example 31]	MAGL (Homo sapiens, UniProt Q99685)	6.45
O=C(N1CC2(CC(n3cnc(C4CC4)n3)C2)C1)N1CC2(C1)CN(S(=O)(=O)c1cncc(C(F)(F)F)c1)C2 [Example 268]	MAGL (Homo sapiens, UniProt Q99685)	7.49

A = O=C(N1CC2(CC(n3cnc(C4CC4)n3)C2)C1)N1CC2(C1)CN(C(=O)C(F)(F)F)C2 [Example 337]
B = O=C(N1CC(c2cn(C3(C(F)(F)F)CC3)nn2)C1)N1CC2(CC(n3cnc(C4CC4)n3)C2)C1 [Example 164]
stdin: Which entry shows the lesser value of pIC50 here, A or B ? Response format: the label of the selected entry.
stdout: A

A = O=C(N1CC(C23CC(c4nnc(CC(F)(F)F)o4)(C2)C3)C1)N1CC2(CC(n3cnc(C4CC4)n3)C2)C1 [Example 435]
B = N#Cc1cc(C2CC2)ccc1OC1CN(C(=O)N2CC3(CC(n4cnc(C5CC5)n4)C3)C2)C1 [Example 188]
stdin: Return label of the item with the larger pIC50. Candidates: A , B . Response format: the label of the selected entry.
stdout: B
(B: 9.70, A: 8.11)

I = O=C(N1CC2(CC(n3cnc(C4CC4)n3)C2)C1)N1CC2(CN(Cc3ccc(S(=O)(=O)C(F)(F)F)cc3)C2)C1 [Example 469]
II = O=C(c1cnc(OCC2(C(F)(F)F)CC2)c(F)c1)N1CC2(CC(n3cnc(C4CC4)n3)C2)C1 [Example 26]
III = O=C(N1CC(c2ccc(-c3n[nH]c(C4CC4)n3)cc2)C1)N1CC2(CC(n3cnc(C4CC4)n3)C2)C1 [Example 467]
stdin: # ascending order, key=pIC50 Response field: labels, in requested order.
stdout: II, III, I
(II: 7.70, III: 8.63, I: 9.32)

A = N#Cc1c(OC2CN(C(=O)N3CC4(CC(n5cnc(C6CC6)n5)C4)C3)C2)cccc1C1CC1 [Example 191]
B = CC(C)(C)c1nc(-c2ccc(C(=O)N3CC4(CC(n5ccc(C#N)n5)C4)C3)cc2)no1 [Example 8]
stdin: Which entry shows the lesser value of pIC50 here, A or B ? Response format: the label of the selected entry.
stdout: B
(B: 6.31, A: 9.70)

A = N#Cc1cc(O[C@H]2C[C@@H]3CN(C(=O)N4CC5(CC(n6cnc(C7CC7)n6)C5)C4)C[C@@H]3C2)ccc1C(F)(F)F [Example 118]
B = O=C(N1CC(c2ccn(CC(F)(F)F)c(=O)c2)C1)N1CC2(CC(n3cnc(C4CC4)n3)C2)C1 [Example 261]
C = O=C(N1CC(c2cnc(N3CC[C@@H](C(F)(F)F)C3)nc2)C1)N1CC2(CC(n3cnc(C4CC4)n3)C2)C1 [Example 482]
D = O=C(N1CC2(CC(n3cnc(C4CC4)n3)C2)C1)N1CC2(CCN(Cc3ccc(C(F)(F)F)nn3)C2)C1 [Example 438]
stdin: // sort entries: pIC50, high to low Response field: labels, in requested order.
stdout: C, A, D, B
(C: 8.90, A: 8.33, D: 7.83, B: 7.62)

a = O=C(N1CC(Oc2ccc(C(F)(F)F)c(C3CC3)c2)C1)N1CC2(CC(n3cnc(C4CC4)n3)C2)C1 [Example 187]
b = O=C(N1CC(c2ccc(NC3(C(F)(F)F)CC3)nc2)C1)N1CC2(CC(n3cnc(C4(O)CC4)n3)C2)C1 [Example 492]
c = Cc1cn(C2CC3(C2)CN(C(=O)N2CC4(CC(Cc5ccc(F)cc5F)C4)C2)C3)cn1 [Example 218]
d = O=C(N1CC(OCc2ccc(C(F)(F)F)cc2F)C1)N1CC2(CC(n3cnc(C4CC4)c3)C2)C1 [Example 102]
stdin: # ascending order, key=pIC50 Response field: labels, in requested order.
stdout: d, b, c, a
(d: 7.29, b: 7.96, c: 8.68, a: 9.70)

P = O=C(O)c1ccccc1CN1CC2(C1)CN(C(=O)N1CC3(CC(n4cnc(C5CC5)n4)C3)C1)C2 [Example 313]
Q = O=C(N1CC(c2ccc(N3CCC(O)(C(F)(F)F)C3)nc2)C1)N1CC2(CC(n3cnc(C4CC4)n3)C2)C1 (centres unmarked) [Example 212]
R = O=C(N1CC(c2ccc(C3CCC3)cc2)C1)N1CC2(CC(n3cnc(C4CC4)n3)C2)C1 [Example 507]
S = O=C(N1CC2(CC(Cc3ccc(C(F)(F)F)nc3)C2)C1)N1CC2(CC(c3cncc(F)c3)C2)C1 [Example 515]
stdin: // sort entries: pIC50, high to low Response field: labels, in requested order.
stdout: R, Q, S, P

a = NC(=O)[C@H]1CC(F)(F)CCN1c1ccc(C2CN(C(=O)N3CC4(CC(n5cnc(C6CC6)n5)C4)C3)C2)cc1 (single isomer, unassigned) [Example 493]
b = O=C(N1CC2(CCC(Cc3ccc(Cl)cn3)CC2)C1)N1CC2(CC(c3ccc(C(F)(F)F)nc3)C2)C1 [Example 517]
stdin: Which entry shows the lesser value of pIC50 here, a or b ? Response format: the label of the selected entry.
stdout: b
(b: 6.52, a: 8.89)

====

Target chain: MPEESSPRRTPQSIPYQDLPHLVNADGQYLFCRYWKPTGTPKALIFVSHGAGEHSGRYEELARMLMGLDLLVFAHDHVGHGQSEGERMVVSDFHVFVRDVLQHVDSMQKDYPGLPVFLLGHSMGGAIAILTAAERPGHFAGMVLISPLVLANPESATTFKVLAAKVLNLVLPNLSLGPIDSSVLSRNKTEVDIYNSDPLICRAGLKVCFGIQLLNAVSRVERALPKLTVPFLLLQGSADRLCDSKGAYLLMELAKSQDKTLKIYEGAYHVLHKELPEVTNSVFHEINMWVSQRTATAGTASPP
pIC50: −log10 of the molar value.
recorded endpoint: pIC50

Please review the entries below; each comes with its answer.
molecule	pIC50
CNC(=O)C(c1ccc(F)cc1)N1CCN(C(=O)N2CC3(CC(n4cnc(C5CC5)n4)C3)C2)CC1 (stereo not shown)	5.50
COc1ccc(S(=O)(=O)N2CC3(CN(C(=O)N4CC5(CC(n6cnc(C7CC7)n6)C5)C4)C3)C2)cc1	7.35

P = Cc1cccc(F)c1CCC1CN(C(=O)N2CC3(CC(n4cnc(C5CC5)n4)C3)C2)C1
Q = CS(=N)(=O)c1cccc(CC2CC3(C2)CN(C(=O)N2CC4(CC(n5cnc(C6(O)CC6)n5)C4)C2)C3)c1 (stereo not shown)
R = O=C(N1CC(c2ccc(NC3CCS(=O)(=O)C3)nc2)C1)N1CC2(CC(n3cnc(C4CC4)n3)C2)C1 (stereo not shown)
S = CC(F)(F)c1ccc(C2CN(C(=O)N3CC4(CC(n5cnc(C6CC6)n5)C4)C3)C2)cc1
T = O=C(N1CC(Oc2ccc(C(F)(F)F)c(C3CC3)c2)C1)N1CC2(CC(c3cncc(F)c3)C2)C1
stdin: # ascending order, key=pIC50 Response field: labels, in requested order.
stdout: P, T, Q, R, S
